Test system: P12-Ichikawa
Assay: cell viability relative to DMSO control; higher = less cytotoxic
Conditions: RPMI 5 mM glucose + 10% dialyzed FBS; 48 h; 0.00702 µM
Kindly supply the reported cell viability values for the records listed here.
Return type: number; implicit unit %.

Note cell viability for the compound shown: CCCCCNC(=O)N1CCC(CN(Cc2ccc(Cl)cc2)Cc2ccc([N+](=O)[O-])s2)C1 (stereo not given)
104

Note cell viability for the compound shown: "CCCCOCCOc1nc(-c2ccc(C(=O)O)c(F)c2)sc1C"
124

Note cell viability for the compound shown: "CC(C)(O)CC(=O)NCCn1ccc2ncnc(Nc3ccc(Oc4cccc(C(F)(F)F)c4)c(Cl)c3)c21"
117

Note cell viability for the compound shown: "C[C@@H]1CCO[C@H]2CN\3/C=C(/C(=O)NCC4=C(F)C=C(F)C=C4)C(=O)\C(=C3C(=O)N12)O"
103

Note cell viability for the compound shown: "CN1CCCN(CC1)C2=CC=C3C(=O)\C(=C/4SC5=C(C=CC=C5)N4C3=N2)C(=O)NCC6=CN=C(C)C=N6"
117

###

Kindly supply the reported cell viability values for the records listed here.
Tested on: SEM cells
Assay: cell viability relative to DMSO control; higher = less cytotoxic
Conditions: HPLM + 10% dialyzed FBS; 48 h; 1.71 µM
Return type: number; implicit unit %.

Note cell viability for the compound shown: "CCCCOc1c(C(=O)c2c(F)cc(C)cc2F)cnc2[nH]ncc12"
92

Note cell viability for the compound shown: "Cc1cccc(Nc2ccncc2[S+](=O)([O-])NC(=O)NC(C)C)c1"
85.6

Note cell viability for the compound shown: COc1ccc2c(c1)[C@]13CCCCC1C(C2)N(C)CC3 (stereo partly specified)
100

Note cell viability for the compound shown: "Cc1csc(-c2nnc(Nc3ccc(Oc4ncccc4-c4ccnc(N)n4)cc3)c3ccccc23)c1"
42.1

Note cell viability for the compound shown: "CN1CC(=O)N2[C@H](c3ccc4c(c3)OCO4)c3[nH]c4ccccc4c3C[C@@H]2C1=O"
106

Note cell viability for the compound shown: "CN1CCCN(CC1)C2=CC=C3C(=O)\C(=C/4SC5=C(C=CC=C5)N4C3=N2)C(=O)NCC6=CN=C(C)C=N6"
88.1

Note cell viability for the compound shown: "CC#CCn1c(N2CCC[C@@H](N)C2)nc2c1c(=O)n(Cc1nc(C)c3ccccc3n1)c(=O)n2C"
109

Note cell viability for the compound shown: "Nc1ncnc2c1ncn2[C@@H]1O[C@H](CO)C[C@H]1O"
97.4

Note cell viability for the compound shown: "Nc1ncnc2c1c(-c1cccc(OCc3ccccc3)c1)cn2[C@H]1C[C@@H](CN2CCC2)C1"
114

Note cell viability for the compound shown: "COc1cccc2c1C(=O)c1c(O)c3c(c(O)c1C2=O)C[C@@](O)(C(=O)CO)C[C@@H]3O[C@H]1C[C@H](N)[C@H](O)[C@H](C)O1"
12.9

Note cell viability for the compound shown: "CC(C)OC(=O)[C@H](C)N[P@](=O)(OC[C@H]1O[C@@H](N2\C=C/C(=O)NC2=O)[C@](C)(F)[C@@H]1O)OC3=CC=CC=C3"
98.4

Note cell viability for the compound shown: "Cc1coc2c1C(=O)C(=O)c1c-2ccc2c1CCCC2(C)C"
102

Note cell viability for the compound shown: "COc1cc(C(=O)N2CC[C@@H](O)[C@@H](N)C2)cc2nc(-c3cc4ccccc4n3CC3CC3)n(C)c12"
51.1

Note cell viability for the compound shown: COC(=O)C\1=C(C)\N\C(=C(/C1C2=CC=CC3=NON=C23)C(=O)OC(C)C)C (stereo unspecified)
83.6

Note cell viability for the compound shown: COc1ccc(C(=O)CC2(O)C(=O)Nc3c(Cl)ccc(Cl)c32)cc1 (stereo unspecified)
107

Note cell viability for the compound shown: "CCCCCCCCCCCCCC(=O)N[C@H](CO)[C@H](O)c1ccc([N+](=O)[O-])cc1"
39.8

###

System: P12-Ichikawa
Test: cell viability relative to DMSO control; higher = less cytotoxic
Settings: RPMI 5 mM glucose + 10% dialyzed FBS; 48 h; 0.0632 µM
METRIC: cell viability (%)
Return type: number; implicit unit %.

Note cell viability for the compound shown: "CN(C)CC(C)(C)CNc1nn2c(-c3ccccc3)nnc2cc1C1CCC1"
113

Note cell viability for the compound shown: "COc1cc[nH]c2ncc(C(=O)C(=O)N3CCN(C(=O)c4ccccc4)C[C@H]3C)c1-2"
101

Note cell viability for the compound shown: CC(C(=O)O)c1ccc2c(c1)CC(=O)c1ccccc1S2 (stereo not drawn)
99.5

###

System: SEM cells
Assay: cell viability relative to DMSO control; higher = less cytotoxic
Details: RPMI 5 mM glucose + 10% FBS; 48 h; 0.00702 µM
METRIC: cell viability
Quote the value and follow it with the unit of measurement.

Note cell viability for the molecule shown: "CCCCCCCCCCCCCC(=O)N[C@H](CO)[C@H](O)c1ccc([N+](=O)[O-])cc1"
89.1%

Note cell viability for the molecule shown: CCCCCNC(=O)N1CCC(CN(Cc2ccc(Cl)cc2)Cc2ccc([N+](=O)[O-])s2)C1 (stereo unspecified)
129%

Note cell viability for the molecule shown: "O=C(O)c1cc(/N=N/c2ccc([S+](=O)([O-])Nc3ccccn3)cc2)ccc1O"
108%

Note cell viability for the molecule shown: "CC(C)c1cc(C(C)C)c(CC(=O)N[S+](=O)([O-])Oc2c(C(C)C)cccc2C(C)C)c(C(C)C)c1"
114%

Note cell viability for the molecule shown: "CCCCOc1c(C(=O)c2c(F)cc(C)cc2F)cnc2[nH]ncc12"
103%

Note cell viability for the molecule shown: "N[C@@H]1CONC1=O"
84.7%

Note cell viability for the molecule shown: "CCc1ccc(/C=C2/SC(=S)NC2=O)cc1"
94%

Note cell viability for the molecule shown: "CNCC[C@H](Oc1cccc2ccccc12)c1cccs1"
119%

Note cell viability for the molecule shown: "CNc1nc(Nc2cnn([C@H]3CCN(C4COC4)C[C@@H]3F)c2Cl)ncc1C(F)(F)F"
108%

Note cell viability for the molecule shown: "COc1cc[nH]c2ncc(C(=O)C(=O)N3CCN(C(=O)c4ccccc4)C[C@H]3C)c1-2"
112%

Note cell viability for the molecule shown: "CN1\C=N/C2=CC=C(NC3=CC(=CC=C3C)NC(=O)C4=CC(=CC=C4)C(C)(C)C#N)C=C2C1=O"
107%

Note cell viability for the molecule shown: "Cc1coc2c1C(=O)C(=O)c1c-2ccc2c1CCCC2(C)C"
107%

Note cell viability for the molecule shown: Cc1ccccc1C(=O)Nc1ccc(C(=O)N2CCCC(O)c3cc(Cl)ccc32)c(C)c1 (stereo unspecified)
123%

Note cell viability for the molecule shown: "C=CC(=O)Nc1cc2c(Nc3ccc(F)c(Cl)c3)ncnc2cc1OCCCN1CCOCC1"
85.3%

Note cell viability for the molecule shown: COc1ccc2c(c1)CN(C)CC2c1ccc(Cl)c(Cl)c1 (stereo unspecified)
140%

Note cell viability for the molecule shown: O=C(CCCN1CCN(c2ccc(F)cc2)CC1)NC1c2ccccc2CSc2ccccc21 (stereo unspecified)
115%

###

Tested on: P12-Ichikawa
Assay: cell viability relative to DMSO control; higher = less cytotoxic
Details: RPMI 5 mM glucose + 10% FBS; 48 h; 0.00234 µM
METRIC: cell viability (%)
Return type: number; implicit unit %.

Note cell viability for the molecule shown: CCCCCNC(=O)N1CCC(CN(Cc2ccc(Cl)cc2)Cc2ccc([N+](=O)[O-])s2)C1 (stereo unspecified)
116

Note cell viability for the molecule shown: "C[C@@H](CN1CC(=O)NC(=O)C1)N1CC(=O)NC(=O)C1"
104

Note cell viability for the molecule shown: "O=C(O)c1cc(/N=N/c2ccc([S+](=O)([O-])Nc3ccccn3)cc2)ccc1O"
111

Note cell viability for the molecule shown: "COc1cc2c(cc1OC)CN(CCc1ccc(NC(=O)c3cc(OC)c(OC)cc3NC(=O)c3cnc4ccccc4c3)cc1)CC2"
112

Note cell viability for the molecule shown: CC(N[C@H]1CCCC[C@@H]1NC(=O)c1ccc(Cl)cc1)c1cccc2ccccc12 (stereo partly specified)
119

Note cell viability for the molecule shown: CC(C(=O)O)c1ccc2c(c1)CC(=O)c1ccccc1S2 (stereo unspecified)
117

###

Test system: NOMO1
Experiment: cell viability relative to DMSO control; higher = less cytotoxic
Conditions: HPLM + 10% dialyzed FBS; 48 h; 5.12 µM
Kindly supply the reported cell viability values for the records listed here.
Return type: number; implicit unit %.

Note cell viability for the compound shown: "CCCNC(=O)Nc1ccc(Oc2ncnc3cc(OC)c(OC)cc23)cc1Cl"
71

Note cell viability for the compound shown: CC(C(=O)O)c1ccc2c(c1)CC(=O)c1ccccc1S2 (stereo not drawn)
68.2

Note cell viability for the compound shown: "CCCCOc1c(C(=O)c2c(F)cc(C)cc2F)cnc2[nH]ncc12"
89.1

###

Tested on: NOMO1
Assay: cell viability relative to DMSO control; higher = less cytotoxic
Conditions: HPLM + 10% dialyzed FBS; 48 h; 1.71 µM
METRIC: cell viability (%)
Return type: number; implicit unit %.

Note cell viability for the compound shown: "N[C@@H]1CONC1=O"
110

Note cell viability for the compound shown: "C=CC(=O)Nc1cc2c(Nc3ccc(F)c(Cl)c3)ncnc2cc1OCCCN1CCOCC1"
105

Note cell viability for the compound shown: "O=C(O)C(=O)c1cn(Cc2ccccc2)c2ccc(-c3ccc(OC(F)(F)F)cc3)cc12"
81.4

Note cell viability for the compound shown: "C[C@@H]1CCO[C@H]2CN\3/C=C(/C(=O)NCC4=C(F)C=C(F)C=C4)C(=O)\C(=C3C(=O)N12)O"
90.6

Note cell viability for the compound shown: "CC#CCn1c(N2CCC[C@@H](N)C2)nc2c1c(=O)n(Cc1nc(C)c3ccccc3n1)c(=O)n2C"
87.8
